Measured values drawn from patent US20160296529A1 for this set.

Assay: Single dose pharmacokinetics in animals, rabbit
Type: in vivo, New Zealand White rabbits
Conditions: male, New Zealand White, plasma, oral, upon administration of Formula II, read-out: apparent terminal elimination half-life (converted)
Protocol: Pharmacokinetic studies were performed in various animal species dosed with the compound according to Formula II to determine the exposure to the compound according to Formula I as well as its apparent terminal half life (T1/2), when possible. […] Plasma concentrations of the compound according to Formula I and of the compound according to Formula II were determined by an LC-MS/MS method with a limit of quantification ≦10.0 ng/mL for both Formula I and Formula II for all species. […]
value.kind: half-life

QUERY: Record request: half-life value, item "Nc1nc2cccc(-c3ccc(CN4CCS(=O)(=O)CC4)cc3)n2n1"
RESULT: 4.6 h
